test: yeast display, Sf9 membrane polyspecificity reagent, FACS + sequencing; frameworks hold sequencing errors
observation type: polyreactivity (PSR sort gate)

seq string | measured result
QVQLVESGGGLVQAGGSLRLSCAASGRIFPFYAMGWYIQAPGKERELVAAISRSGRTNYADSVKGRFTISRDNAKNTVFLQMNSLKPEDTAVYYCNADYYLFDFDSWGQGTQVTVSS | low polyreactivity
QVQLVESGGGFVQAGGSLRLTCAASGYIFANYGMGWYRQAPGKQMELVAAISGSGGSTYYADSVKGRFTISRDNAKNTVYLQMNSLKPQDTAVYYCAALSNWWSYFTCYDGSDGFDYWVQGTQVTVSS | low polyreactivity
QVQLVESGGGLVQAGGSLRLSCAASGSTFRANAMGWYRQAPGKERELVAAITSGGSTNYADSVKGRFTISRDNATNTVYLQMNSLKPEDTAVYYCADESYQEHSFYVYYGYDYWGQGTQVTVSS | low polyreactivity

---

test: yeast display, Sf9 membrane polyspecificity reagent, FACS + sequencing; frameworks hold sequencing errors

seq string | polyreactivity (PSR sort gate)
QVQLVESGGGLVQAGGSLRLSCAASGLTFPRYAMGWYRQAPGIERELVAAISYRGSRTYYADSVKGRFTISRDNAKNTVYLQMNSLKPEDSAVYYCNKVRPGYGVTYLVGYWGQGTQVTVSS | high polyreactivity
QVQLVESGGGLVQAGGSLRLSCAASGRTFGYYTMGWYRQAPGKEREFVAAISGSGTITFYADSVKGRFTISRDNAKNTVYLQMNSLKPEDTAVYYCAADYRYGGSRGYRYDYWGQGTQVTVSS | low polyreactivity
QVQLVESGGGLVQAGGSLRLSCAASGSTFRYYALGWYRQAPGKERELVAAINRSGGSTYYADSVKGRFTISRDNAKNTVDLQMNSLKQEETAVYYCAAPWARHYSNPDDYWGQGTQVTVSS | high polyreactivity
QFQLVESGGGLVQAGGSLRLSCAASGFTFYYYTMGWYRQAPGKERELVAAITWRGGSTNYADSVKGRFTISRDNAKNTVYLQMNSLKPEDTAVYYCAAVTYWFWPGMDYWGQGTQVTVSS | low polyreactivity
QVQLVESGGGLVQAGGSLRLSCAASGFTFSVNAMGWYRQAPGKERELVADIDWSGGSTYYADSVKGRFTISRDNAKNTVYLQMNSLKPEDTAVYYCSADYYSPDSYVQGSSGEYWGQGTQVTVSS | low polyreactivity

---

assay: yeast display, Sf9 membrane polyspecificity reagent, FACS + sequencing; frameworks hold sequencing errors

seq string | polyreactivity (PSR sort gate)
QVQLVESGGGLVQAGGSLRLSCAASGRTFYYYAMGWYRQAPGKERELVAAISRSGGITYYADSVKGRFTISRDNAKNTVYLQMNSLKPEDTAVYYCAADAWFSLRYAPRSYAYGYWGQGTQVTVSS | low polyreactivity
QDQLVESVGGLVQAGGSLRLSCAASGSTFTSNAMGWYRQAPGKERELVAVITIGGSTNYADSVKGRFTISLDNAKNSVYLQMNSLKPEDTAVYYCAAELFPLQHFWGAYATRRYDYWGQGTQVTVSS | low polyreactivity
QVQLVESGGGLVQAGGSLRLSCAASGSTFYRYDMGWYRQAPGKERELVAAITSVGSTKYADSVKGRFTISRDNAKNTVYLQMNSLKPEDNAVYYCNVDYIDWGQWYTNYPLSGYDYWGQGTQVTVSS | low polyreactivity

---

experiment: yeast display, Sf9 membrane polyspecificity reagent, FACS + sequencing; frameworks hold sequencing errors
observation type: polyreactivity (PSR sort gate)

seq string | measured result
QVQLVESGGCLVQAGGSLRLSCAASGSTFNYYAMGWYRQAPGKERELVAAISSSGGRTYYADSVKGRFTISRDNAKNTVYLQMNSLKPEDTAVYYCNARTYSYRGYNYWGQGTQVTVSS | high polyreactivity
QVQLVESGGGLVQAGGSLRLSCAASRLTFVGYAMGWYRQAPGKETALVAALTSSGGGTYYADSVKGRFTISRDNAKNPVYLQMNSLKPQDTALYYCAKVTRGSQYDYWGQGTEVTVSS | low polyreactivity
QVQLVESGGGLVQAGGSLRLSCAASGFIFPIYAMGWYRQEHGKERELVAGISGSGTSTYYADSVKGRFTISLDYAKNTVYLQMNSLKPVDNAVYYCNAKYPWGNYKSVSYDYWGQGTQVTVSS | high polyreactivity
QVQLVESGGGLVQAGGSLRLSCAASGFIFYYNTMVWYRQAPGKERELVASITWSGDTTYYADSVKGRFTISRDNAKNTVYLQMNSLKPEDTAVYYCAAVHYYPYRRYDYWGQGTQVTVSS | low polyreactivity
QVQLVESGGGLVQAGGSLRLSCAASGFIFVRYAMGWYRQAPGKQRELVASITRSGGSTYYADSVKGRFTISRDNAKNTVYLQMNSLKPEDTAVYYCAASYFRSRGSTYGYWGQGTQVTVSS | high polyreactivity
QVKLVESGGGLVQAGGSLRLSCAASGIIFYRYAMGWYRQAPGKERELVAAISGRTGRTYYADSVKGRFTISRDNAKNTVYLQMNSLKPEDTAVYYCAADYYHYRYQTRLDYWGQGTQVTVSS | high polyreactivity
QVQLVESGGGLVQAGCSLRLSCAASGSTFRYYPMGWYRQAPGKEREFVAAITWRDGSTYYADSVKGRFTISRDNAKNTVYLQMNSLKPEDTAVYYCAARNSHVGYYDEYYYWGQGTQVTVSS | low polyreactivity
QVQLVESGGALVQAGGSLRLSCAASGGTFYTYAMGWYRQAPGKERELVATITRRGGSTYYADSVKGRFTISRDNAKNTVYLQMKSLKPEDTAVYYCAARSYISTRPIMGYWGQGTQVTVSS | high polyreactivity
QVQLVESGGGLVQAGGSLRLSSAASGRIFDTNAMGGYRQAPGKERELVAAISKSGGSTYYADSVKGRFTISRDNAKNTVYLQMNSLKPEDTAVYFCAAKYTSGRVLFEHGYWGQGSQVTVSS | low polyreactivity
QVQLVESGGGLVQAGGSLRVSCAASGRTFGGYAMGWYRQAPGKERELVAAISDRGTSTYYADSVKGRFTISRDNAKNTVYLQMNSLKPEDTAVYYCAARINYWGYYYWGQGTQVTVSS | high polyreactivity
QVQLVESGGGLVQAGGSLRLSCAASGNTFFLYAMGWYRQAPGKERELVAVISASGGSTYFADSVKGRFTISRDNAKNTVYLQMNSVKPEDTAVYYCAKTPRTYYRYRNAFHYYYWGQGTQVTVSS | high polyreactivity

---

assay: yeast display, Sf9 membrane polyspecificity reagent, FACS + sequencing; frameworks hold sequencing errors
observation type: polyreactivity (PSR sort gate)

seq string | observation type | measured result
QVQLVESGGGLVQAGGSLRLSCAASGNIFKSYTMGWYRQAPGKERELVAAITSGGRTNYADSVKGRFTISRDNAKNTVYLQMNSLKPEDTAVYYCAAKHFRWGTGDYWGQGTQVTVSS | polyreactivity (PSR sort gate) | high polyreactivity
QFQLVESGGGLVQAGGSLRLSCADSGIIFRDNAMGWYRQAPGKERELVATIRRRGGGTYYADSVKGRFTISRDNAKNTVYLQMNSLKPEDSAVYYCAARVIKSSHDYDYWGQGTQVTVSS | polyreactivity (PSR sort gate) | low polyreactivity
QVQLVESGGGLVQAGGSLRLSCAASGPTFGVYAKGWDRQAPGKEREFVAAISSTGGSTYYADSVKGRFTISRDNAKNTVYLQMNSLKPEDTAVYYCAARLHTYGYSYGYWGQGTQVTVSS | polyreactivity (PSR sort gate) | high polyreactivity
QVQLVESGGGLVQAGGSLRLSCAASGSIFVSNAMGWYRQAPGKEREMVAAISQSGGSTYYADSVKGLFTISRDNAKNTVYLQMNSLKPEDTEVYYCATPIRSGFRIYEYWGQGTQVTVSS | polyreactivity (PSR sort gate) | low polyreactivity
QVQLVESGGGLVQAGGSLRLSCAASGYIFDRYAMGWSRPAPGKERELVAAISGRGGSTYYADSVKGRFTISLDNAKNTVYLQMNSLKPEDTAVYYCNALVQGKEYYWGQGTQVTVSS | polyreactivity (PSR sort gate) | high polyreactivity
QVQLVESGGGLVQAGGSLRLSCAASGITFVWYDMGGYRQAPGKEREFVAVISKRGGSTYYADSVKGRFTISRDNAKNTVYLQMNSLKPEDTAVYYCAASYNLYRRYYYWGQGTQVTVSS | polyreactivity (PSR sort gate) | high polyreactivity
QVQLVESGGGLVQAGGSLRLSCAASGRTFLGYAMGWYRQAPGKERELVAAISYSGSSTYYADSVKGRFTITRDNAKITVYLQMNSLKPEDTAVYYCAAQFFFLFDYWGQGTQVTLSS | polyreactivity (PSR sort gate) | low polyreactivity
QVQLVESGGGLVQAGGSLRLSCAASGGTFGHYTMGWYRQAPGKERELVAAISGSGGTTYYADSVKGRFTISRDNAKNTVYLQINSLKPEDTAVYFCNKGIPTRSVRSYDYWGQGTKVTVSS | polyreactivity (PSR sort gate) | high polyreactivity
QVQLVESGGGLVQAGGSLRLSCAASGLIFYAYYMGWYRQAPGKERELVAAISYSGGSTYYADSVKGRFTISRDNAKNTVYLQMNSLKPEDTSVYYCAADDGISTYEYWGQGTQVTVSS | polyreactivity (PSR sort gate) | high polyreactivity
QVQLVESGGGLVQAGGSLRLSCAASGSIIWRNTMGWYRQAPGKESELVARITGRGGRTNYADSVKGRFTISRDNAKNTVYLQMNSLKPEDTAVYYCAAAYPSVAYSYRYDYWGQGTQVTVSS | polyreactivity (PSR sort gate) | high polyreactivity
QVQLVESGGVLVQAGGSLRLSCAASGSIFYYNAMGWYRQAPGKERELVATITGGNGTYYADSVKGRFTISRDNAKNTVYLQMNSLKPEVTAVYYCARDTDPQSSRSSDYDYWGQGTQVTVSS | polyreactivity (PSR sort gate) | low polyreactivity
QVQLVESGGGLVQAGGSLRLSCAASGYIFPYYAMGWYRQAPGKERELVAAISRSGGGTYYADSVKGRFTISRDNAKNTVYLQMNSLKPEDTAVYYCNRRSGHVHEYDYWGQGTQVTVSS | polyreactivity (PSR sort gate) | low polyreactivity
QVQLVESGGGLVQAGGSLRLSCAASGFTFDYNTMGWYRQAPGKEIELVAGISRGGGSTYYADSVKGRFTISRDNAKNTVYLQMNSLKPEVTAVYYCNTVLKRQRKNEYWGQGTQVTVSS | polyreactivity (PSR sort gate) | high polyreactivity
QVQLVESGGGLVQAGGSLRLSCAASGSIFYYYAMGWYRQAPGKERELVAAINGGDGRTYYADSVKGRFTISRDNGKNTVYLQMNSLKPEDTAVYYCAADWPGYSAYYYWGQGTQVTVSS | polyreactivity (PSR sort gate) | low polyreactivity
QVQLHESGGGLVQVGGSQRLSCAASGNIFYNYAMGWYRHAQGKEREFDATINHGTSINYADSVKGRFTISRDNAKNTVYLQMNSLKPEDTAVYYCAADLSWTDNLFYWGQGTQVTVSS | polyreactivity (PSR sort gate) | low polyreactivity
QVQLVESGGGLVQAGGSLRLSCAASGFTFQWYAMGWYRQAPGKERELVAGITSGASTNYADSVKGRFTISRDNAKNNVYLQMNSLKPEDTAVYYCAAGYKSRYYRNSGYYWGQGTQVTVSS | polyreactivity (PSR sort gate) | high polyreactivity
QVQLVESGGGLVQAGGSLRLSCAATGFTSYLYTMGGYRQAAGKERELVAAISNSGGNTYYADSVKGRFTISRDNANNTVYLQMNSLKPEDTAVYYCAARLFAAKYRYGYWGQGTQVTVSS | polyreactivity (PSR sort gate) | high polyreactivity
QVQLVESGGGLVQAGGSLRLSCAASGSIFEYTGMGWYRQAPGKERELVAAITTTGTTDYADSVKGRFTISRDNAKNTVYLQMNSLKPEDTAVYYCAADYTYYYKVEYDYWGQGTQVTVSS | polyreactivity (PSR sort gate) | low polyreactivity
QVQLVESGGGLVQAGGSLRLTCAASGFTFFYNAMGWYRQAPGKERELVAAISRGGGRTYYADSVKGRFTISRDNAKNTVYLQMNSLKPEDTAVYYCAKEYGGTRGRKLDYWGQGTQVTVSS | polyreactivity (PSR sort gate) | high polyreactivity
QVHLVESGGGLVQAGGSLLLSCAASGFTFRTNAMGWNRQAPGKERELVAVISRRGGSTYYADSVKGRFTISRDNAKNTVYIQMNSLKPEDTAVYYCNAGDGTVGRTYYRSYDYWGQGTQVTVSS | polyreactivity (PSR sort gate) | high polyreactivity
QFQLVESVGGLVQAGSRLRLSCAASGRTFIPYAMGWYRQAPGKERELVAAITSSGGLTYYADSVMGRFTISRDNAKNTVYLQMNSLKPEDTAVYYCNKYARGYDMDYWGHGTQVTVSS | polyreactivity (PSR sort gate) | high polyreactivity
